Let's look at some proteins and their measured kcat.
Substrate: C1O[C@H]1[C@H]1CO1
Test: purified protein
Details: 5 mM GSH, 0.10 M Tris-HCl pH 7.7, 37 °C, 1 h
readoutType: kcat (s⁻¹)

>  <protein>
human GST A3-3 (Homo sapiens) (protein) AGKPKLHYFNGRGRMEPIRWLLAAAGVEFEEKFIGSAEDLGKLRNDGSLMFQQVPMVEIDGMKLVQTRAILNYIASKYNLYGKDIKERALIDMYTEGMADLNEMILLLPLCRPEEKDAKIALIKEKTKSRYFPAFEKVLQSHGQDYLVGNKLSRADISLVELLYYVEELDSSLISNFPLLKALKTRISNLPTVKKFLQPGSPRKPPADAKALEEARKIFRF

>  <obsValue>
0.028

$$$$
>  <protein>
rat GST 5-5 (Rattus norvegicus) (protein) VLELYLDLLSQPCRAIYIFAKKNNIPFQMHTVELRKGEHLSDAFAQVNPMKKVPAMKDGGFTLCESVAILLYLAHKYKVPDHWYPQDLQARARVDEYLAWQHTTLRRSCLRTLWHKVMFPVFLGEQIRPEMLAATLADLDVNVQVLEDQFLQDKDFLVGPHISLADVVAITELMHPVGGGCPVFEGRPRLAAWYRRVEAAVGKDLFLEAHEVILKVRDCPPADPVIKQKLMPRVLTMIQ

>  <obsValue>
0.0573

$$$$
>  <protein>
human GST P1-1 (Homo sapiens) (protein) PPYTVVYFPVRGRCAALRMLLADQGQSWKEEVVTVETWQEGSLKASCLYGQLPKFQDGDLTLYQSNTILRHLGRTLGLYGKDQQEAALVDMVNDGVEDLRCKYISLIYTNYEAGKDDYVKALPGQLKPFETLLSQNQGGKTFIVGDQISFADYNLLDLLLIHEVLAPGCLDAFPLLSAYVGRLSARPKLKAFLASPEYVNLPINGNGKQ

>  <obsValue>
0.0442

$$$$
>  <protein>
human GST M1-1 (Homo sapiens) (protein) PMILGYWDIRGLAHAIRLLLEYTDSSYEEKKYTMGDAPDYDRSQWLNEKFKLGLDFPNLPYLIDGAHKITQSNAILCYIARKHNLCGETEEEKIRVDILENQTMDNHMQLGMICYNPEFEKLKPKYLEELPEKLKLYSEFLGKRPWFAGNKITFVDFLVYDVLDLHRIFEPKCLDAFPNLKDFISRFEGLEKISAYMKSSRFLPRPVFSKMAVWGNK

>  <obsValue>
0.074

$$$$

Source: paper PMC3850785
